Test: qHTS profiling of the MIPE4 collection as inhibitors of Plasmodium falciparum (3D7) proliferation (AID 743344);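 also: scaled between DMSO vehicle wells and 0.29 µM artemisinin as full inhibition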
Settings: P. falciparum 3D7 in erythrocytes, SYBR Green DNA fluorescence, 72 h; at 28.5 µM unless noted
Protocol: Plasmodium falciparum is a virulent malarial parasite that kills 1-2 million people worldwide each year. […] Because mature erythrocytes lack DNA, only Plasmodium-derived DNA is detected. The SYBR Green viability assay was adapted from a method described previously (Plouffe et al., 2008). […] The following morning, fluorescence intensity at 485(14) nm excitation and 535(25) nm emission wavelengths was measured on an EnVision (Perkin Elmer) plate reader. […]
Readings of parasite growth, % of DMSO control for the listed compounds
observation-type: parasite growth, % of DMSO control (%)

compound: NC1(c2ccc(-c3nc4ccn5c(=O)[nH]nc5c4cc3-c3ccccc3)cc2)CCC1
reported-value: 5.65

compound: CN1CCN(c2c(F)cc3c(=O)c(C(=O)O)cn(CCF)c3c2F)CC1
reported-value: 86.6

compound: C#CCN[C@@H]1CCc2ccccc21
reported-value: 95.8

compound: CCc1c2c(nc3ccc(OC(=O)N4CCC(N5CCCCC5)CC4)cc13)-c1cc3c(c(=O)n1C2)COC(=O)[C@]3(O)CC
reported-value: 66.3

compound: O=C(O)CSCC(=O)NC1CCSC1=O (stereo unspecified)
reported-value: 102

compound: CCCOc1ccc(C(=O)OCCN(CC)CC)cc1N
reported-value: 100

compound: S=P(N1CC1)(N1CC1)N1CC1
reported-value: 11.7

compound: CC1=C(C(=O)O)N2C(=O)[C@@H](NC(=O)C(N)c3ccccc3)[C@H]2SC1 (stereo partly specified)
reported-value: 101

compound: CCC(=O)O[C@]1(C(=O)SCF)[C@H](C)C[C@H]2[C@@H]3C[C@H](F)C4=CC(=O)C=C[C@]4(C)[C@@]3(F)[C@@H](O)C[C@@]21C
reported-value: 47.5

compound: CCOCC(O)COc1ccc(NC(=O)CC[S+](C)C)cc1 (stereo unspecified)
reported-value: 84

compound: COc1cccc(N(C)C(=S)Oc2ccc3c(c2)CCCC3)n1
reported-value: 47.9
